- System: sodium monoiodoacetate (MIA)-induced model rats
- test_method_notes: Analgesic effect on sodium monoiodoacetate-induced model rats (right hind limb weight load ratio)
- Format: in vivo, rat
- test_settings: day 24, test substance oral twice a day over 10 days, 3 hours after last administration, experiment with tramadol as positive control (Table 7)
With a cut-off of 60%, any Percent improvement (%) strictly below it is called MET; any Percent improvement (%) meeting it or above is called NOT MET.

* O=C(Nc1cnc(Oc2ccc(-c3cnn4cccnc34)cc2)nc1)Nc1cc(C(F)(F)F)ccc1-c1cccnc1 | NOT MET
* COc1ccn2ncc(-c3ccc(Oc4ncc(NC(=O)Nc5cc(C(F)(F)F)ccc5-c5cccnc5)cn4)cc3)c2n1 | NOT MET
* Nc1ncc(Cl)cc1-c1ccc(Oc2ncc(NC(=O)Nc3ccc(C(F)(F)F)cc3Cl)cn2)cc1 | MET

// next entry
**Q:** API: query returns whether the compound falls strictly under 60% in Percent improvement (%). Query: Nc1ncc(F)cc1-c1ccc(Oc2ncc(NC(=O)Nc3cc(C(F)(F)F)ccc3-n3ccnn3)cn2)cc1
**A:** MET
